molecular target: VEGF (Homo sapiens); settings: ITC, 20 °C, 50 mM HEPES/NaOH, 150 mM NaCl, pH 7.5; first binding site; calculated from ΔG and ΔH (Eq. 2); 95 % confidence interval in brackets
Sequence (P15692 219-313): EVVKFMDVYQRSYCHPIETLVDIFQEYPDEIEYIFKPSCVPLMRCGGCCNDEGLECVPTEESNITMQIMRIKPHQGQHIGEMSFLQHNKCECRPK
Where a SMILES comes first, the peptide text is derived from it. Bridges are numbered along the chain shown (N, C = ends). [ ]: non-standard residue; d: D form. Nle = CCCC[C@H](N)C(=O)O
Below, each entry is listed alongside its reported −TΔS.

>>> measured_result("CCCC[C@@H]1NC(=O)[C@H](C(C)C)NC(=O)[C@H](Cc2c[nH]cn2)NC(=O)[C@H]([C@@H](C)CC)NC(=O)[C@H](CC(=O)O)NC(=O)[C@@H](N)CSSC[C@@H](C(=O)N[C@@H](Cc2ccccc2)C(=O)N[C@@H](CCC(=O)O)C(=O)N[C@@H](CC(=O)O)C(=O)N[C@@H](CC(C)C)C(N)=O)NC(=O)[C@H](CCCCN)NC(=O)[C@H](Cc2c[nH]c3ccccc23)NC(=O)[C@H](CCC(=O)O)NC(=O)[C@H](Cc2c[nH]c3ccccc23)NC1=O [compound 1] (H-CDIHV[Nle]WEWKCFEDL-NH2; disulfide 1-11)")
"8.7 [8.2; 9.3] kcal⋅mol^−1"
>>> measured_result("CCCC[C@@H]1NC(=O)[C@H](C(C)C)NC(=O)[C@H](Cc2c[nH]cn2)NC(=O)[C@H]([C@@H](C)CC)NC(=O)[C@H](CC(=O)O)NC(=O)[C@@H](N)CSSC[C@@H](C(=O)N[C@@H](Cc2ccccc2)C(=O)N[C@@H](CCC(=O)O)C(=O)N[C@@H](CCCCN)C(=O)N[C@@H](CC(C)C)C(N)=O)NC(=O)[C@H](CC(=O)O)NC(=O)[C@H](Cc2c[nH]c3ccccc23)NC(=O)[C@H](CCC(=O)O)NC(=O)[C@H](Cc2c[nH]c3ccccc23)NC1=O")
"6.7 [6.3; 7.1] kcal⋅mol^−1"

API: the following record is the query input.
Query string: Any idea what −TΔS came out for CCCC[C@@H]1NC(=O)[C@H](C(C)C)NC(=O)[C@H](Cc2c[nH]cn2)NC(=O)[C@H]([C@@H](C)CC)NC(=O)[C@H](CC(=O)O)NC(=O)[C@@H](N)CSSC[C@@H]2NC(=O)[C@H](CCC(=O)NCCCC[C@@H](C(=O)N[C@@H](CC(C)C)C(N)=O)NC(=O)[C@H](CCC(=O)O)NC(=O)[C@H](Cc3ccccc3)NC2=O)NC(=O)[C@H](Cc2c[nH]c3ccccc23)NC(=O)[C@H](CCC(=O)O)NC(=O)[C@H](Cc2c[nH]c3ccccc23)NC1=O on VEGF (Homo sapiens)?
Result string: 6.1 [5.6; 6.5] kcal⋅mol^−1
